measured-on: Human HDAC1 (Homo sapiens)
Construct: full length with C-terminal His-tag and C-terminal FLAG-tag; His (C); FLAG (C); host or cells: baculovirus expression system
Sequence (Q13547 whole entry): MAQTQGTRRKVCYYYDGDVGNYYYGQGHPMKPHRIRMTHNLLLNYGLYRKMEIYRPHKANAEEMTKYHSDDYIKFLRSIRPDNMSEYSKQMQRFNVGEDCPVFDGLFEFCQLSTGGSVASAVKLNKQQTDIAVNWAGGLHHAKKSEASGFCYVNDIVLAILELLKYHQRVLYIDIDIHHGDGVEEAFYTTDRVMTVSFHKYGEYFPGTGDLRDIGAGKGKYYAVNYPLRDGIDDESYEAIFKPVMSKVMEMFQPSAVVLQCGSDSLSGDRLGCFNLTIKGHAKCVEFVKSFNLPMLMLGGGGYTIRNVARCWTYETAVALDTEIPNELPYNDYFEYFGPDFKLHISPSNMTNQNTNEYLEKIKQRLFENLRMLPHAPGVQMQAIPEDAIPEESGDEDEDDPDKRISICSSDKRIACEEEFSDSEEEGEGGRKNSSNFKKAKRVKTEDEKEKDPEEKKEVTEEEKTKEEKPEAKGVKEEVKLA
assay-details: HDAC1 biochemical assay, AMC-labeled peptide substrate
condition-details: read-out: HDAC Isoform IC50 (nM) 1
IC50 values for the molecules below.
quantity-measured: IC50

                                smiles_text  quantity_measured  endpoint_value
0  Cc1cnc(N(Cc2ccc(-c3noc(C(F)(F)F)n3)s2)c2cnccn2)cn1               IC50      ≤ 10000 nM
1  FC(F)(F)c1nc(-c2ccc(CN(c3cnccn3)c3nccc4cnccc34)s2)no1               IC50      > 10000 nM
2  Cc1cc(N(Cc2ccc(-c3noc(C(F)(F)F)n3)s2)c2cnccn2)ncn1               IC50      > 10000 nM
3  O=C(c1cnnc(N(Cc2ccc(-c3noc(C(F)(F)F)n3)s2)c2cnccn2)c1)N1CCCC1               IC50      > 10000 nM
4  Cc1ncc(N(Cc2ccc(-c3noc(C(F)(F)F)n3)s2)c2cnccn2)cn1               IC50      ≤ 10000 nM
